PROTOCOL_TEXT: NCI Yeast Anticancer Drug Screen. Data for the cln2 rad14 strain (AID 165);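 further: 0% = growth equal to vehicle treated cultures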
ASSAY_CONDITIONS: S. cerevisiae cln2 rad14 strain, hits give high values; at 50.0 µM unless noted
Compounds without any hit were thinned out: in the full panel of roughly 79,000, 15% have a hit.
Note to self: values exactly at 20% are Met. So growth inhibition at or above 20% is Met, below is Not met.

[[record]]
compound = "O=S1(=O)CCC(c2ccccc2)C1 (stereo not drawn)"
assigned_category = "Not met"

[[record]]
compound = "CC(C)COC(c1ccccc1)c1ccccc1"
assigned_category = "Not met"

[[record]]
compound = "CCN1CCC(O)C1 (stereo not drawn)"
assigned_category = "Not met"

[[record]]
compound = "CC(C)(C)C1CCC2c3c([nH]c4ccccc34)C3C(=O)N(c4cc(Br)cc(Br)c4)C(=O)C3C2C1 (stereo not drawn)"
assigned_category = "Not met"

[[record]]
compound = "CCCCCCCCCCCCCC(=O)OCCC(C)C"
assigned_category = "Not met"


Challenge: Decide: is the reported value of growth inhibition for CCCNCCCCCCNc1cc(OC)cc2cccnc12 equal to or greater than 20%?
Response given: Met

Challenge: Now consider C=CCC1(CN(C)C)CC/C(=C\c2cc(OC)c(OC)c(OC)c2)C1=O (stereo not drawn) and answer again.
Response given: Not met

Challenge: Then this compound: COc1cccc(NC(=O)NCCCl)c1OC
Response given: Met

Challenge: For CC1C(c2ccccc2)OCCN1C(N)=S (stereo not drawn) then?
Response given: Not met

Challenge: Now the same for C/C=C/C#C/C=C1/C=CC(=O)O1
Response given: Met

Challenge: Next record, please: COc1cc(OC)c(-c2cc(=O)c3c(OC)c(OC)c(OC)c(OC)c3o2)cc1OC
Response given: Not met

Challenge: And COc1cccc2c1OC1(N3CCOCC3)CCCCC1C2C[N+](=O)[O-] (stereo not drawn) ?
Response given: Not met

Challenge: Entry CC(C)=CC(=O)CNC(N)=S please
Response given: Not met

---

Readings of growth inhibition for the listed compounds
PROTOCOL_TEXT: NCI Yeast Anticancer Drug Screen. Data for the bub3 strain (AID 167)
ASSAY_CONDITIONS: S. cerevisiae bub3 mutant strain, hits give high values; at 50.0 µM unless noted
The panel holds about 79,000 compounds, 15% with a hit somewhere; the sample as a whole holds those more often.
Only the number, expressed in %, is required.

Reference set, count: 10
[[record]]
compound = "Cc1ccc(S(=O)(=O)N2CCCSCC2)cc1"
endpoint = "growth inhibition"
observed_result = -11.6

[[record]]
compound = "ClC1CCC[N-]C1.ClC1CCC[N-]C1.[Cl][Pt+2][Cl] (centres undefined)"
endpoint = "growth inhibition"
observed_result = -3.6

[[record]]
compound = "Cc1ccc2nc(C=Nc3ccccc3Cl)cc(C)c2c1"
endpoint = "growth inhibition"
observed_result = -4.45

[[record]]
compound = "CN(C(=O)c1ccc([N+](=O)[O-])cc1)C(c1ccco1)P(=O)(c1ccccc1)c1ccccc1 (centres undefined)"
endpoint = "growth inhibition"
observed_result = 46.2

[[record]]
compound = "CCCCNC(=S)NNC(=O)c1ccncc1"
endpoint = "growth inhibition"
observed_result = 10.7

[[record]]
compound = "N=C(N)SCCCCCSC(=N)N"
endpoint = "growth inhibition"
observed_result = -6.35

[[record]]
compound = "CN(C)/C(N)=N\\c1nc(O)cc(=O)[nH]1"
endpoint = "growth inhibition"
observed_result = 10.7

[[record]]
compound = "COc1ccc(/C(C)=C\\C(=O)O)cc1"
endpoint = "growth inhibition"
observed_result = -40

[[record]]
compound = "CC(C)(Oc1ccc(C(=O)c2ccc(Cl)cc2)cc1Cl)C(=O)N1CCN(c2ccccc2)CC1"
endpoint = "growth inhibition"
observed_result = -9.2

[[record]]
compound = "CC1=C(C)C(C#N)(C(=O)CBr)C(=N)O1 (centres undefined)"
endpoint = "growth inhibition"
observed_result = 33.1


Could you now look at the following compound, please?
Challenge: If you can, please state the reported growth inhibition value of CN(C)CCCC(=O)O .
Response given: -31.9
